B1: 2M8U (parent)
chain: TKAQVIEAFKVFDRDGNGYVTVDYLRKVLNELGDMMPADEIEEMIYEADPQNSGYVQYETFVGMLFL

# Variants of: B1
# test: folding stability dG (cDNA display proteolysis); higher = more stable
# condition.notes: PBS, room temperature
Entries annotated with measured folding stability dG

[
  {
    "variant.id": "F12Y",
    "folding stability dG [kcal/mol]": 3.71
  },
  {
    "variant.id": "G18Q",
    "folding stability dG [kcal/mol]": 2.3
  },
  {
    "variant.id": "T1S",
    "folding stability dG [kcal/mol]": 3.34
  },
  {
    "variant.id": "R26V",
    "folding stability dG [kcal/mol]": 3.11
  },
  {
    "variant.id": "V62N",
    "folding stability dG [kcal/mol]": 1.68
  },
  {
    "variant.id": "N30W",
    "folding stability dG [kcal/mol]": 3.71
  },
  {
    "variant.id": "D15I",
    "folding stability dG [kcal/mol]": 3.02
  },
  {
    "variant.id": "L67N",
    "folding stability dG [kcal/mol]": 3.67
  },
  {
    "variant.id": "E40R",
    "folding stability dG [kcal/mol]": 3.96
  },
  {
    "variant.id": "S53E",
    "folding stability dG [kcal/mol]": 3.09
  },
  {
    "variant.id": "Y19R",
    "folding stability dG [kcal/mol]": 2.76
  },
  {
    "variant.id": "A3F",
    "folding stability dG [kcal/mol]": 3
  },
  {
    "variant.id": "G54A",
    "folding stability dG [kcal/mol]": 2.36
  },
  {
    "variant.id": "P37A",
    "folding stability dG [kcal/mol]": 3.1
  },
  {
    "variant.id": "Q57V",
    "folding stability dG [kcal/mol]": 3.1
  },
  {
    "variant.id": "F9R",
    "folding stability dG [kcal/mol]": 1.98
  },
  {
    "variant.id": "A48P",
    "folding stability dG [kcal/mol]": 2.25
  },
  {
    "variant.id": "E59R",
    "folding stability dG [kcal/mol]": 3.06
  },
  {
    "variant.id": "Y55F",
    "folding stability dG [kcal/mol]": 3.35
  },
  {
    "variant.id": "D34F",
    "folding stability dG [kcal/mol]": 4.68
  },
  {
    "variant.id": "L67Y",
    "folding stability dG [kcal/mol]": 3.08
  },
  {
    "variant.id": "E7P",
    "folding stability dG [kcal/mol]": 1.91
  },
  {
    "variant.id": "L67S",
    "folding stability dG [kcal/mol]": 3.6
  },
  {
    "variant.id": "D15K",
    "folding stability dG [kcal/mol]": 2.32
  },
  {
    "variant.id": "V5W",
    "folding stability dG [kcal/mol]": 4.09
  },
  {
    "variant.id": "G33I",
    "folding stability dG [kcal/mol]": 4.07
  },
  {
    "variant.id": "K2A",
    "folding stability dG [kcal/mol]": 3.47
  },
  {
    "variant.id": "M64R",
    "folding stability dG [kcal/mol]": 4.29
  },
  {
    "variant.id": "V20G",
    "folding stability dG [kcal/mol]": 1.83
  },
  {
    "variant.id": "D34W",
    "folding stability dG [kcal/mol]": 4.49
  },
  {
    "variant.id": "M64F",
    "folding stability dG [kcal/mol]": 3.34
  },
  {
    "variant.id": "K2R",
    "folding stability dG [kcal/mol]": 3.02
  },
  {
    "variant.id": "L29E",
    "folding stability dG [kcal/mol]": 1.12
  },
  {
    "variant.id": "E42A",
    "folding stability dG [kcal/mol]": 3.26
  },
  {
    "variant.id": "M35L",
    "folding stability dG [kcal/mol]": 3.68
  },
  {
    "variant.id": "Y24M",
    "folding stability dG [kcal/mol]": 4.04
  },
  {
    "variant.id": "L67T",
    "folding stability dG [kcal/mol]": 3.3
  },
  {
    "variant.id": "Y58L",
    "folding stability dG [kcal/mol]": 2.51
  },
  {
    "variant.id": "I45T",
    "folding stability dG [kcal/mol]": 2.13
  },
  {
    "variant.id": "V5N",
    "folding stability dG [kcal/mol]": 2.04
  },
  {
    "variant.id": "G54D",
    "folding stability dG [kcal/mol]": 2.06
  }
]
